# measurement-target: T1, mIL1RAcP-Fc (murine, UniProt Q61730 21-359)
# T1 construct: also called P013_04; P013-04
# T1 sequence (looked up): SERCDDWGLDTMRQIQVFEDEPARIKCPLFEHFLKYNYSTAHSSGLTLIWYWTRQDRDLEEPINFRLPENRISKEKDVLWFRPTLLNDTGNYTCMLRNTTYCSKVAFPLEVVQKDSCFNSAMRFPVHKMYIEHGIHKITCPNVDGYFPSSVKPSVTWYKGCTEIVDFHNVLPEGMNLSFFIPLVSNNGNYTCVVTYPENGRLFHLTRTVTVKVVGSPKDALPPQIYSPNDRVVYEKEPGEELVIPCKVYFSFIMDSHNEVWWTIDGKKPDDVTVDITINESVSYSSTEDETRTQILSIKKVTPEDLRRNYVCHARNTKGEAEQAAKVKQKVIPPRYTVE
# experiment-description: ELISA, primary supernatant, coated mu-IL-1RAcP-Fc
quantity-name: mu-IL1RaP ELISA (OD)
Respond with the bare value in OD.

Use the examples below as a reference point.
P013.S.02.B.H02 (antibody, V domains shown, rabbit monoclonal antibody; also called P013.A.00015.B10) VH: QSLEESGGRLVTPGTPLTLTCTVSGFSLSSCAMIWVRQAPGKGLEWIGFIGRGGSTWYASWVNGRFTISKTSTTVDLKITSPTTEDTATYFCARDGDFSDYYTFNLWGQGTLVTVSS VL: DVVMTQTPASVSEPVGGTVTIKCQASQNIGSNLAWYQQKPGQPPKLLIYGASTLASGVPSRFSGSGSGTEFTLTISGVQSADATTYYCQCSGYDTTGVFPFGGGSEVVVR	0.8
P013.S.01.B.A02 (antibody, V domains shown, rabbit monoclonal antibody; also called P013.A.00003.H11) VH: QSVEESGGRLVTPGTPLTLTCTVSGIDLSSYAMGWVRQAPGKGLEYIGVITSSATTYYASWAKGRFTISKTSSTTVDLRVTSLTTEDTATYFCARGGPGYSTNTHYAFDPWGPGTLVTVSS VL: AFEMTQTPSSVSEPVGGTVTIKCQASQSIYIYLSWYQQKPGQRPKLLIYDASKLASGVPSRFSGSGSGTEFTLTISGVQSDDAATYYCQQGATTYNVDNVFGGGTEVVVK	1.2

Value of measured mu-IL1RaP ELISA (OD) for the entry P013.S.01.B.G04 (antibody, V domains shown, rabbit monoclonal antibody; also called P013.A.00013.G06) VH: QSVEESGGRLVTPGTPLTLTCTVSGFSLSVYAMGWFRQAPGKGLEWIGDIYIASDGTWYANWAKGRFTISKTSTTVDLKITSPTTEDTATYFCAREIDAGYVGYGFNLWGQGTLVTVSS VL: AQALTQTPSPVSAAVGGTVTINCQSSQSVYSDYLGWYQQKPGQPPKLLIYWASKLETGVPSRFKGSGSGTQFTLTISGVQSDDAATYYCQATYYGSGWYRAFGGGTEVVVK : 0
